Exercise: state measured IC50 for each of the compounds provided.
State the value, then name its unit.

For Pim 3 (Homo sapiens, UniProt Q86V86), give the measured IC50 of the entry C[C@H]1C[C@@H](c2ccncc2NC(=O)c2ccc(F)c(-c3c(F)cc(OC4COC4)cc3F)n2)C[C@@H](N)[C@@H]1O
1.32 nM

For Pim 3 (Homo sapiens, UniProt Q86V86), give the measured IC50 of the entry COC(C)(C)c1cc(F)c(-c2nc(C(=O)Nc3cnccc3[C@@H]3C[C@H](C)C[C@H](N)C3)ccc2F)c(F)c1
1.86 nM

For Pim 3 (Homo sapiens, UniProt Q86V86), give the measured IC50 of the entry COC1(c2cc(F)c(-c3nc(C(=O)Nc4cnccc4[C@H]4C[C@@H](N)[C@H](O)[C@@H](C)C4)c(N)cc3F)c(F)c2)COC1
0.93 nM

For Pim 3 (Homo sapiens, UniProt Q86V86), give the measured IC50 of the entry CCOc1cc(F)c(-c2nc(C(=O)Nc3cnccc3[C@@H]3C[C@H](C)C[C@H](N)C3)ccc2F)c(F)c1
0.51 nM

For Pim 3 (Homo sapiens, UniProt Q86V86), give the measured IC50 of the entry COC(C)(C)c1cc(F)c(-c2nc(C(=O)Nc3cnccc3N3C[C@@H](N)[C@H](O)[C@@H](C)C3)ccc2F)c(F)c1
0.42 nM

For Pim 3 (Homo sapiens, UniProt Q86V86), give the measured IC50 of the entry C[C@H]1CN(c2ccncc2NC(=O)c2ccc(F)c(-c3c(F)cc(O[C@@H]4CCCOC4)cc3F)n2)C[C@@H](N)[C@@H]1O
0.17 nM

----------
# experimental.target: Pim 1 (Homo sapiens, UniProt P11309)
# Sequence (P11309 whole entry): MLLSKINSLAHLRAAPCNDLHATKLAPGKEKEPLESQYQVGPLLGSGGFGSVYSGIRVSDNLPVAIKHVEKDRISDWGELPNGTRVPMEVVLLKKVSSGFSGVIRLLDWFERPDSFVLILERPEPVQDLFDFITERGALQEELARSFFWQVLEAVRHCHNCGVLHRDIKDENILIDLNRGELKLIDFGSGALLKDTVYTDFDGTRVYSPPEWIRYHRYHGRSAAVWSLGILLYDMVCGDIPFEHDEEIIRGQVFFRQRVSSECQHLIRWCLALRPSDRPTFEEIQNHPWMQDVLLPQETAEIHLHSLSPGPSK
Exercise: state measured IC50 for each of the compounds provided.
Kindly provide the numeric value in nM only, without the unit symbol.

Hello, please tell me recorded IC50 for this one: C[C@@H]1C[C@H](N)C[C@H](c2ccncc2NC(=O)c2nc(-c3c(F)cc(C4(O)COC4)cc3F)c(F)cc2N)C1
0.01

Hello, please tell me recorded IC50 for this one: COc1cc(F)c(-c2nc(C(=O)Nc3cnccc3N3C[C@@H](N)[C@H](O)[C@@H](C)C3)ccc2F)c(F)c1
0.02

Hello, please tell me recorded IC50 for this one: COCCOc1cc(F)c(-c2cccc(C(=O)Nc3cnccc3[C@@H]3C[C@H](C)C[C@H](N)C3)n2)c(F)c1
0.07

Hello, please tell me recorded IC50 for this one: CC(C)Oc1cc(F)c(-c2nc(C(=O)Nc3cnccc3N3C[C@@H](N)[C@H](O)[C@@H](C)C3)ccc2F)c(F)c1
0.01

Hello, please tell me recorded IC50 for this one: C[C@H]1CN(c2ccncc2NC(=O)c2ccc(F)c(-c3c(F)cc([S@@+](C)[O-])cc3F)n2)C[C@@H](N)[C@@H]1O
0.05

Hello, please tell me recorded IC50 for this one: C[C@H]1CN(c2ccncc2NC(=O)c2ccc(F)c(-c3c(F)cc(C4CCS(=O)(=O)CC4)cc3F)n2)C[C@@H](N)[C@@H]1O
0.01

----------
Exercise: state measured pIC50 for each of the compounds provided.
Expect pIC50 as a plain number equal to -log10 of the molar concentration.

For Pim 3 (Homo sapiens, UniProt Q86V86), give the measured pIC50 of the entry C[C@@H]1C[C@H](N)C[C@H](c2ccncc2NC(=O)c2ccc(F)c(-c3c(F)cc(C4COC4)cc3F)n2)C1 [Example 68]
8.95

For Pim 3 (Homo sapiens, UniProt Q86V86), give the measured pIC50 of the entry COCCOc1cc(F)c(-c2nc(C(=O)Nc3cnccc3[C@@H]3C[C@H](C)C[C@H](N)C3)ccc2F)c(F)c1 [Example 12]
8.86

For Pim 3 (Homo sapiens, UniProt Q86V86), give the measured pIC50 of the entry C[C@H]1CN(c2ccncc2NC(=O)c2nc(-c3c(F)cc(OC4CCOCC4)cc3F)c(F)cc2N)C[C@@H](N)[C@@H]1O [Example 115]
9.92

For Pim 3 (Homo sapiens, UniProt Q86V86), give the measured pIC50 of the entry CC(C)Oc1cc(F)c(-c2nc(C(=O)Nc3cnccc3[C@H]3C[C@@H](N)[C@H](O)[C@@H](C)C3)c(N)cc2F)c(F)c1 [Example 97]
9.43

For Pim 3 (Homo sapiens, UniProt Q86V86), give the measured pIC50 of the entry CC(C)[C@@H]1C[C@H](N)C[C@H](c2ccncc2NC(=O)c2ccc(F)c(-c3c(F)cc(OC4CCOCC4)cc3F)n2)C1 [Example 110]
9.60

For Pim 3 (Homo sapiens, UniProt Q86V86), give the measured pIC50 of the entry C[C@H]1CN(c2ccncc2NC(=O)c2ccc(F)c(-c3c(F)cc(C4(O)CCC4)cc3F)n2)C[C@@H](N)[C@@H]1O [Example 76]
9.66
